- System: HeLa
- assay.text: Selectivity index, ratio of IC50 for HUVEC to IC50 for human HeLa cells
The reader will find reported Ratio IC50 values listed item by item below.
A bare number is all that is needed in reply.

* O=[N+]([O-])c1ccc(NC2=NCc3c([nH]c4ccccc34)S2)cc1 | 6.2
* Brc1ccc(NC2=NCc3c([nH]c4ccccc34)S2)cc1 | 2.2
* Fc1ccc(NC2=NCc3c([nH]c4ccccc34)S2)cc1 | 1.9
* COc1cc([C@@H]2c3cc4c(cc3[C@@H](O[C@@H]3O[C@@H]5CO[C@@H](C)O[C@H]5[C@H](O)[C@H]3O)[C@H]3COC(=O)[C@H]23)OCO4)cc(OC)c1O [ETOPOSIDE] | 0.32
* CSC1=NCc2c([nH]c3ccccc23)S1 [CYCLOBRASSININ] | 1
* FC(F)(F)c1ccc(NC2=NCc3c([nH]c4ccccc34)S2)cc1 | 0.9
* FC(F)(F)c1cc(NC2=NCc3c([nH]c4ccccc34)S2)cc(C(F)(F)F)c1 | 0.7
* Clc1ccc(NC2=NCc3c([nH]c4ccccc34)S2)cc1 | 0.3

// next item, Ratio IC50 requested
# Ratio IC50 of "COc1ccc(NC2=NCc3c([nH]c4ccccc34)S2)cc1" = 3.7
